# Kd per entry
measurement-target: T1, mouse DKK1 (mouse, UniProt O54908 32-272)
T1 construct: also called murine DKK1
T1 sequence: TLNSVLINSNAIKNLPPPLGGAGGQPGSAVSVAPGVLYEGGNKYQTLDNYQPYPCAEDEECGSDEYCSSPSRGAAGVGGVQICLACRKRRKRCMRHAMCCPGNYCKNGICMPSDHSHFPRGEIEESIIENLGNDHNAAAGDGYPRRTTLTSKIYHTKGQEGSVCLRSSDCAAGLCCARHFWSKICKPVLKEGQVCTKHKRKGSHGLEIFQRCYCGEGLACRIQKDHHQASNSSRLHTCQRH
assay-details: KinExA 3000 equilibrium binding in solution
Use pM as the unit, but write only the number.

Guide cases for Kd, answers given:
binder="5.25.1 (antibody, V domains shown, Fully human hybridoma IgG, kappa (Vk)) VH: QVQLVQSGAEVKKPGASVKVSCKASGYTFTSYDINWVRQATGQGLEWMGWMDPNSGNTGYAQKFQGRVTMTRNTSISTAFMELSSLRSEDTAVYYCARTDYFYFGMDVWGQGTTVTVSS VL: DIQMTQSPSSLSASVGDRVTITCQASQDISKDLNWYQQKPGKAPRLLIYDASNLETGVPSRFSGSGSGTDFTFTISSLQPEDIATFYCQQYDHLPIAFGQGTRLEIK" metric_name=Kd unit_symbol=pM val=150
binder="2.40.1 (antibody, V domains shown, Fully human hybridoma IgG, kappa (Vk)) VH: QVQLVESGGGVVQPGRSLRLSCAASGFTFSSYGMHWVRQAPGKGLGWVAVISYDGSDKYYADSVKGRFTISRDNSKNTLYLQMNSLRAEDTAVYYCARDLVDTAMPWGQGTTVTVSS VL: DIVMTQSPLSLSVTPGQPASISCKSSQSLLHSDGKTYLYWYLQKPGQPPQLLIYEVSNRFSGVPDRFSGSGSGTDFTLKISRVEAEDVGVYYCMQSIQVPWTFGQGTKVEIK" metric_name=Kd unit_symbol=pM val=480

Now look at this entry.
Dear colleague, please send me the reported Kd for 6.116.6 (antibody, V domains shown, Fully human IgG, kappa (Vk)) VH: QVQLVESGGGVVQPGRSLRLSCAASGFTFSGYGMHWVRQAPGKGLEWVAVISYDGNDKYYADSVKGRFTISRDNAKNTLYLQMNSLRAEDTAVYYCARELRVLWGQGTLVTVSS VL: DIVMTQTPLSLSVTPGQPASISCKSGQSLLHNDGKTYLYWYLQKPGQPPQFLIYEVSNRFSRVPDRFSGSGSGTDFTLKISRVEAEDVGIYYCMQSIQLPWTFGQGTQVEIK when you can. 40
